Below is a list of entries, each paired with its recorded EC50 value.
molecular target: human GPR40 (Homo sapiens); assay: Induction of Ca2+ (calcium flux assay) using human GPR40 expression cell line; conditions: read-out: EC0.5
Sequence (O14842 whole entry): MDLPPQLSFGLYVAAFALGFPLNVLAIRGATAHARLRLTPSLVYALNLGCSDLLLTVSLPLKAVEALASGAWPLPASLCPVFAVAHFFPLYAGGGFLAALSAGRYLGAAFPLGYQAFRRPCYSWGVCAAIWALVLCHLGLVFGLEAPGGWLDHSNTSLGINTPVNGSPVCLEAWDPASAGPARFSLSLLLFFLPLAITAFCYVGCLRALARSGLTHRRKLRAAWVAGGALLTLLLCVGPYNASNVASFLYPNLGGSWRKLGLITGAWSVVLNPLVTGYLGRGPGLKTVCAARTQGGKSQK
Express the result in nM but write the number alone.

Example cases with answers are listed next.
Answer with the recorded EC50 of O=C(O)CC1CCCc2cc(OCc3ccc4c(cnn4Cc4ccccc4)c3)ccc21 (stereo not shown) [Example 119] only.
60

Answer with the recorded EC50 of CC#C[C@@H](CC(=O)O)c1ccc(OCc2ccc3c(CN4CCOCC4)nn(CC(C)C)c3c2C)cc1 [Example 215] only.
10

---
Answer with the recorded EC50 of CC#C[C@@H](CC(=O)O)c1ccc(OCc2ccc3ccn(Cc4ccccc4Cl)c3c2C)cc1 [Example 38] only.
90
